SYSTEM NAME: HLA-A*0201 loaded with the Carcinoembryonic antigen (CEA)-derived … peptide (biotinylated on the C-terminal biotinylation tag)
TEST SUMMARY: SPR (Biacore), Example 4
QUANTITY NAME: Kd

Below, each entry is followed by its recorded Kd result.
{"BINDER": "SEQ ID NO 50 (receptor) MGHLPKPTLWAEPGSVITQGSPVTLRCQGGQETQEYRLYREKKTAPWITRIPQELVKKGQFPIPSITWEHAGRYRCYYGSDTAGRSESSDPLELVVTGIYKAPTLSAQPSPVVNSGGNVTLQCDSQVAFDGFILCKEGEDEHPQCLNSQPHARGSSRAIFSVGPVSPGRRWWYRCYAYDSNSPYEWSLPSDLLELLVL", "Kd": "≤ 1000 nM"}
{"BINDER": "SEQ ID NO 57 (receptor) MGHLPKPTLWAEPGSVITLGQPVTLRCQGGQETQEYRLYREKKTAPWITRIPQELVKKGQFPIPSITWEHAGRYRCYYGSDTAGRSESSDPLELVVTGIYLAPTLSAQPSPVVNSGGNVTLQCDSQVAFDGFILCKEGEDEHPQCLNSQPHARGSSRAIFSVGPVSPSRRWWYRCYAYDSNSPYEWSLPSDLLELLVL", "Kd": "≤ 1000 nM"}
{"BINDER": "SEQ ID NO 73 (receptor) MHLPKPTLWAEPGSVITMDQPVTLRCQGGQETQEYRLYREKKTAPWITRIPQELVKKGQFPIPSITWEHAGRYRCVIQRGTAGRSESSDPLELVVTGVYIKPTLSAQPSPVVNSGGNVTLQCDSQVAFDGFILCKEGEDEHPQCLNSQPHARGSSRAIFSVGPVSPSRRWWYRCYAYDSNSPYEWSLPSDLLELDVDG", "Kd": "≤ 1000 nM"}

Prompt: Fill in: Kd of SEQ ID NO 59 (receptor) MGHLPKPTLWAEPGSVITLGQPVTLRCQGGQETQEYRLYREKKTAPWITRIPQELVKKGQFPIPSITWEHAGRYRCYYGSDTSQWSASSDPLELVVTGIYLAPTLSAQPSPVVNSGGNVTLQCDSQVAFDGFILCKEGEDEHPQCLNSQPHARGSSRAIFSVGPVSPSRRWWYRCYAYDSNSPYEWSLPSDLLELLVL is ___
Completion: ≤ 1000 nM

Prompt: Fill in: Kd of SEQ ID NO 51 (receptor) MGHLPKPTLWAEPGSVITQGSPVTLRCQGGQETQEYRLYREKKTAPWITRIPQELVKKGQFPIPSITWEHAGRYRCYYGSDTAGRSESSDPLELVVTGIYQRPTLSAQPSPVVNSGGNVTLQCDSQVAFDGFILCKEGEDEHPQCLNSQPHARGSSRAIFSVGPVSPGRRWWYRCYAYDSNSPYEWSLPSDLLELLVL is ___
Completion: ≤ 1000 nM

Prompt: Fill in: Kd of SEQ ID NO 79 (receptor) MHLPKPTLWAEPGSVITMDQPVTLRCQGGQETQEYRLYREKKTAPWITRIPQELVKKGQFPIPSITWEHAGRYRCYYGSDTSQWSASSDPLELVVTGVYIKPTLSAQPSPVVNSGGNVTLQCDSQVAFDGFILCKEGEDEHPQCLNSQPHARGSSRAIFSVGPVSPSRRWWYRCYAYDSNSPYEWSDPSDLLELDVDG is ___
Completion: ≤ 1000 nM

Prompt: Fill in: Kd of SEQ ID NO 24 (receptor) MGHLPKPTLWAEPGSVITQGSPVTLRCQGGQETQEYRLYREKKTAPWITRIPQELVKKGQFPIPSITWEHAGRYRCYYGSQGGLRSESSDPLELVVTGVYIKPTLSAQPSPVVNSGGNVTLQCDSQVAFDGFILCKEGEDEHPQCLNSQPHARGSSRAIFSVGPVSPSRRWWYRCYAYDSNSPYEWSLPSDLLELLVL is ___
Completion: ≤ 1000 nM

Prompt: Fill in: Kd of SEQ ID NO 54 (receptor) MGHLPKPTLWAEPGSVITQGSPVTLRCQGGQETQEYRLYREKKTAPWITRIPQELVKKGQFPIPSITWEHAGRYRCYYGSDTAGRSESSDPLELVVTGIYKQPTLSAQPSPVVNSGGNVTLQCDSQVAFDGFILCKEGEDEHPQCLNSQPHARGSSRAIFSVGPVSPGRRWWYRCYAYDSNSPYEWSLPSDLLELLVL is ___
Completion: ≤ 1000 nM

Prompt: Fill in: Kd of SEQ ID NO 58 (receptor) MGHLPKPTLWAEPGSVITMDQPVTLRCQGGQETQEYRLYREKKTAPWITRIPQELVKKGQFPIPSITWEHAGRYRCYYGSDTSQWSASSDPLELVVTGIYLAPTLSAQPSPVVNSGGNVTLQCDSQVAFDGFILCKEGEDEHPQCLNSQPHARGSSRAIFSVGPVSPSRRWWYRCYAYDSNSPYEWSLPSDLLELLVL is ___
Completion: ≤ 1000 nM

Prompt: Fill in: Kd of SEQ ID NO 31 (receptor) MGHLPKPTLWAEPGSVITMDQPVTLRCQGGQETQEYRLYREKKTAPWITRIPQELVKKGQFPIPSITWEHAGRYRCYYGSQGGLRSESSDPLELVVTGVYIKPTLSAQPSPVVNSGGNVTLQCDSQVAFDGFILCKEGEDEHPQCLNSQPHARGSSRAIFSVGPVSPGRRWWYRCYAYDSNSPYEWSLPSDLLELLVL is ___
Completion: ≤ 1000 nM

Prompt: Fill in: Kd of SEQ ID NO 33 (receptor) MGHLPKPTLWAEPGSVITMDQPVTLRCQGGQETQEYRLYREKKTAPWITRIPQELVKKGQFPIPSITWEHAGRYRCVIQRGTAGRSESSDPLELVVTGVYIKPTLSAQPSPVVNSGGNVTLQCDSQVAFDGFILCKEGEDEHPQCLNSQPHARGSSRAIFSVGPVSPSRRWWYRCYAYDSNSPYEWSLPSDLLELLVL is ___
Completion: ≤ 1000 nM
